Recorded values, source the supplement of paper PMC10567573.

B1: LOC100129726 (parent)
chain: AKAADSPTRNDLESGLGHFSLRVH

- Variants of: B1
- Assay Explanation: protein stability index of a GFP-peptide fusion (GPS, HEK-293T) (PSI 1-6); higher = more stable;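 further: lentivirally expressed fusions sorted by FACS into six bins by GFP to DsRed ratio, PSI derived from sequencing read proportions per bin multiplied by bin number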
- Condition Parameters: c terminus: a fixed tail appended
# label = label 1 if protein stability index >= 3 else label 0

Exercise: Reported protein stability index reaches at least 3 for `R22L` ?
Solution: label 0

Exercise: Next: `A3D`
Solution: label 1

Exercise: Next: `A4W`
Solution: label 0

Exercise: Next: `H24E`
Solution: label 1

Exercise: Next: `H24F`
Solution: label 0

Exercise: Next: `F19P`
Solution: label 1

Exercise: Next: `R22C`
Solution: label 0

Exercise: Next: `H24R`
Solution: label 0

Exercise: Next: `N10H`
Solution: label 1

Exercise: Next: `T8N`
Solution: label 1

Exercise: Next: `G15Y`
Solution: label 0

Exercise: Next: `D11M`
Solution: label 0

Exercise: Next: `L16M`
Solution: label 1

Exercise: Next: `K2E`
Solution: label 1

Exercise: Next: `R9N`
Solution: label 1

Exercise: Next: `G17N`
Solution: label 1

Exercise: Next: `T8K`
Solution: label 0

Exercise: Next: `A1N`
Solution: label 1

Exercise: Next: `E13C`
Solution: label 0

Exercise: Next: `S6G`
Solution: label 0

Exercise: Next: `D11T`
Solution: label 0

Exercise: Next: `D11L`
Solution: label 0

Exercise: Next: `F19S`
Solution: label 1

Exercise: Next: `L21G`
Solution: label 1

Exercise: Next: `E13V`
Solution: label 0

Exercise: Next: `R9K`
Solution: label 1

Exercise: Next: `S20C`
Solution: label 0

Exercise: Next: `A3Y`
Solution: label 0

Exercise: Next: `A3L`
Solution: label 0

Exercise: Next: `P7S`
Solution: label 0

Exercise: Next: `L12P`
Solution: label 1

Exercise: Next: `A1Q`
Solution: label 1

Exercise: Next: `S14V`
Solution: label 0

Exercise: Next: `S6V`
Solution: label 0

Exercise: Next: `A1T`
Solution: label 1

Exercise: Next: `A3R`
Solution: label 1

Exercise: Next: `E13I`
Solution: label 0

Exercise: Next: `S20E`
Solution: label 1

Exercise: Next: `K2A`
Solution: label 1

Exercise: Next: `D11A`
Solution: label 1

Exercise: Next: `L21S`
Solution: label 1

Exercise: Next: `S14G`
Solution: label 0

Exercise: Next: `K2Y`
Solution: label 0

Exercise: Next: `A4E`
Solution: label 1

Exercise: Next: `P7A`
Solution: label 1

Exercise: Next: `S6Y`
Solution: label 0

Exercise: Next: `S14M`
Solution: label 0

Exercise: Next: `A4R`
Solution: label 0

Exercise: Next: `A1S`
Solution: label 1

Exercise: Next: `R9F`
Solution: label 0

Exercise: Next: `P7H`
Solution: label 1

Exercise: Next: `G17H`
Solution: label 0
